# measurementNotes: Pharmacokinetic study of nine absorbed components in rat serum after oral RMC extract (UHPLC-DAD)
# measurementParameters: male, Sprague-Dawley, rat, serum, po, 10 mL/kg, AUC, N-RMC group (normal rats), serum, oral RMC extract 10 mL/kg (equal to 6 g/mL of RMC) once a day for 7 days, n = 6
I'd be grateful if you could share measured AUC for these entries.
Note: state the figure and append the unit.

C[C@@]12C[C@@]3(O)O[C@@H](O1)[C@]1(COC(=O)c4ccccc4)[C@H]3C[C@@]12O[C@@H]1O[C@H](CO)[C@@H](O)[C@H](O)[C@H]1O :: 1450 µg·h/mL
COc1ccc(C(C)=O)c(O)c1 :: 107 µg·h/mL

Now for the molecule whose AUC we want.
Exam item: Name the reported AUC value associated with the molecule Cc1oc2c(O)cccc2c(=O)c1O [3,8-Dihydroxy-2-methylchromone, 3,8-dihydroxy-2-methylchromone]
Marked response: 660 µg·h/mL

====

Task for the reader: assign each of the following molecules its reported MRT.
# measurementNotes: Pharmacokinetic study of nine absorbed components in rat serum after oral RMC extract (UHPLC-DAD)
# measurementParameters: male, Sprague-Dawley, rat, serum, po, 10 mL/kg, MRT, BHS-RMC group (BHS model rats), serum, oral RMC extract 10 mL/kg (equal to 6 g/mL of RMC) once a day for 7 days, n = 6
Give bare numbers, in h.

Solved cases (5 shown):
Cc1oc2c(O)cccc2c(=O)c1O [3,8-Dihydroxy-2-methylchromone, 3,8-dihydroxy-2-methylchromone] :: 14.1
O=C(O)c1cc(O)c(O)c(O)c1 [Gallic acid, gallic acid] :: 10
COC(=O)c1ccc(O)cc1 [Methylparaben, methyl paraben] :: 27.1
O=c1c(O)c(-c2ccc(O)c(O)c2)oc2cc(O)cc(O)c12 [Quercetin, quercetin] :: 20.4
C[C@@]12C[C@@]3(O)O[C@@H](O1)[C@]1(COC(=O)c4ccccc4)[C@H]3C[C@@]12O[C@@H]1O[C@H](CO)[C@@H](O)[C@H](O)[C@H]1O [Paeoniflorin, paeoniflorin] :: 5.06

Fill in MRT for each of the 3 molecules listed.
1. COc1ccc(C(C)=O)c(O)c1 [Paeonol, paeonol]
2. O=Cc1ccc(CO)o1 [5-HMF, 5-hydroxymethylfurfural]
3. O=C(O)c1ccccc1 [Benzoic acid, benzoic acid]

Marked response:
[4.63, 7.47, 13.3]

====

# measurementNotes: Pharmacokinetic study of nine absorbed components in rat serum after oral RMC extract (UHPLC-DAD)
# measurementParameters: male, Sprague-Dawley, rat, serum, po, 10 mL/kg, AUC, N-RMC group (normal rats), serum, oral RMC extract 10 mL/kg (equal to 6 g/mL of RMC) once a day for 7 days, n = 6
Returns one of Satisfied or Not satisfied; Satisfied when AUC is >= 1000 µg·h/mL.

O=Cc1ccc(CO)o1 [5-HMF, 5-hydroxymethylfurfural] :: Satisfied
O=C(O)c1ccccc1 :: Satisfied
O=c1c(O)c(-c2ccc(O)c(O)c2)oc2cc(O)cc(O)c12 :: Satisfied

Alright, here's another compound for you.
Exam item: Does the compound `COC(=O)c1ccc(O)cc1` have recorded AUC that is 1000 µg·h/mL or more?
Marked response: Not satisfied

====

Would you mind telling me the reported Tmax of each entry?
# measurementNotes: Pharmacokinetic study of nine absorbed components in rat serum after oral RMC extract (UHPLC-DAD)
# measurementParameters: male, Sprague-Dawley, rat, serum, po, 10 mL/kg, Tmax, BHS-RMC group (BHS model rats), serum, oral RMC extract 10 mL/kg (equal to 6 g/mL of RMC) once a day for 7 days, n = 6
Give bare numbers, in min.

O=c1c(O)c(-c2ccc(O)c(O)c2)oc2cc(O)cc(O)c12 [Quercetin, quercetin] :: 240

Batch: Tmax for all items listed.
1. COc1ccc(C(C)=O)c(O)c1 [Paeonol, paeonol]
2. O=Cc1ccc(CO)o1 [5-HMF, 5-hydroxymethylfurfural]
3. Cc1oc2c(O)cccc2c(=O)c1O [3,8-Dihydroxy-2-methylchromone, 3,8-dihydroxy-2-methylchromone]
4. COC(=O)c1ccc(O)cc1 [Methylparaben, methyl paraben]
5. O=C(O)c1cc(O)c(O)c(O)c1 [Gallic acid, gallic acid]
6. O=C(O)c1ccccc1 [Benzoic acid, benzoic acid]
7. C[C@@]12C[C@@]3(O)O[C@@H](O1)[C@]1(COC(=O)c4ccccc4)[C@H]3C[C@@]12O[C@@H]1O[C@H](CO)[C@@H](O)[C@H](O)[C@H]1O [Paeoniflorin, paeoniflorin]

Marked response:
45
45
45
60
60
180
45

====

# measurementNotes: Pharmacokinetic study of nine absorbed components in rat serum after oral RMC extract (UHPLC-DAD)
# measurementParameters: male, Sprague-Dawley, rat, serum, po, 10 mL/kg, Tmax, N-RMC group (normal rats), serum, oral RMC extract 10 mL/kg (equal to 6 g/mL of RMC) once a day for 7 days, n = 6
Can you tell me Tmax for the items I'm about to list?
Give bare numbers, in h.

Worked set:
COc1ccc(C(C)=O)c(O)c1 [Paeonol, paeonol] :: 0.75
O=Cc1ccc(CO)o1 [5-HMF, 5-hydroxymethylfurfural] :: 3
COC(=O)c1ccc(O)cc1 [Methylparaben, methyl paraben] :: 0.75

Batch of 3 compounds: report Tmax for each.
1. Cc1oc2c(O)cccc2c(=O)c1O [3,8-Dihydroxy-2-methylchromone, 3,8-dihydroxy-2-methylchromone]
2. O=C(O)c1ccccc1 [Benzoic acid, benzoic acid]
3. O=c1c(O)c(-c2ccc(O)c(O)c2)oc2cc(O)cc(O)c12 [Quercetin, quercetin]

Marked response:
[0.75, 4, 4]

====

# measurementNotes: Pharmacokinetic study of nine absorbed components in rat serum after oral RMC extract (UHPLC-DAD)
# measurementParameters: male, Sprague-Dawley, rat, serum, po, 10 mL/kg, T1/2, N-RMC group (normal rats), serum, oral RMC extract 10 mL/kg (equal to 6 g/mL of RMC) once a day for 7 days, n = 6
Quick rule: half-life of at least 5 h means 1, below that means -1.

Answered cases to consult:
Cc1oc2c(O)cccc2c(=O)c1O [3,8-Dihydroxy-2-methylchromone, 3,8-dihydroxy-2-methylchromone] :: -1
O=c1c(O)c(-c2ccc(O)c(O)c2)oc2cc(O)cc(O)c12 [Quercetin, quercetin] :: 1
COc1ccc(C(C)=O)c(O)c1 [Paeonol, paeonol] :: 1
O=C(O)c1cc(O)c(O)c(O)c1 [Gallic acid, gallic acid] :: 1

Exam item: Could you verify whether the entry C[C@@]12C[C@@]3(O)O[C@@H](O1)[C@]1(COC(=O)c4ccccc4)[C@H]3C[C@@]12O[C@@H]1O[C@H](CO)[C@@H](O)[C@H](O)[C@H]1O [Paeoniflorin, paeoniflorin] shows half-life of no less than 5 h?
Marked response: 1

Exam item: Hi, just wondering whether O=Cc1ccc(CO)o1 [5-HMF, 5-hydroxymethylfurfural] shows half-life of 5 h or higher.
Marked response: -1

====

# measurementNotes: Pharmacokinetic study of nine absorbed components in rat serum after oral RMC extract (UHPLC-DAD)
# measurementParameters: male, Sprague-Dawley, rat, serum, po, 10 mL/kg, Cmax, N-RMC group (normal rats), serum, oral RMC extract 10 mL/kg (equal to 6 g/mL of RMC) once a day for 7 days, n = 6
measuredEndpoint: Cmax (µg/mL)
Answers are plain numbers, in µg/mL.

For orientation, consider the following solved cases.
O=C(O)c1cc(O)c(O)c(O)c1 :: 127
O=c1c(O)c(-c2ccc(O)c(O)c2)oc2cc(O)cc(O)c12 :: 643
O=C(O)c1ccccc1 :: 144

Continue with the next compound.
Exam item: Name the recorded Cmax for `COC(=O)c1ccc(O)cc1` .
Marked response: 6.35

====

# measurementNotes: Pharmacokinetic study of nine absorbed components in rat serum after oral RMC extract (UHPLC-DAD)
# measurementParameters: BHS-RMC versus N-RMC rats, oral RMC extract
Kindly state Cmax increase in BHS-RMC over N-RMC for each of the entries shown.
Answers are plain numbers, in %.

Consider the reported Cmax increase in BHS-RMC over N-RMC for these compounds:
O=C(O)c1cc(O)c(O)c(O)c1 :: 42
O=C(O)c1ccccc1 :: 49

For each entry beneath this line, provide reported Cmax increase in BHS-RMC over N-RMC.
1. O=c1c(O)c(-c2ccc(O)c(O)c2)oc2cc(O)cc(O)c12
2. Cc1oc2c(O)cccc2c(=O)c1O [3,8-Dihydroxy-2-methylchromone, 3,8-dihydroxy-2-methylchromone]

Marked response:
1: 15; 2: 16

====

Task for the reader: assign each of the following compounds its reported Cmax.
# measurementNotes: Pharmacokinetic study of nine absorbed components in rat serum after oral RMC extract (UHPLC-DAD);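 further: BHS model made by subcutaneous yeast suspension then two adrenaline injections with ice-water immersion, normal rats given saline instead, serum analytes quantified by UHPLC-DAD at 254 nm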
# measurementParameters: male, Sprague-Dawley, rat, serum, po, 10 mL/kg, Cmax, N-RMC group (normal rats), serum, oral RMC extract 10 mL/kg (equal to 6 g/mL of RMC) once a day for 7 days, n = 6
One number for each entry, in µg/mL.

Below: 3 compounds and their reported Cmax.
C[C@@]12C[C@@]3(O)O[C@@H](O1)[C@]1(COC(=O)c4ccccc4)[C@H]3C[C@@]12O[C@@H]1O[C@H](CO)[C@@H](O)[C@H](O)[C@H]1O :: 202
COc1ccc(C(C)=O)c(O)c1 :: 11.8
Cc1oc2c(O)cccc2c(=O)c1O [3,8-Dihydroxy-2-methylchromone, 3,8-dihydroxy-2-methylchromone] :: 116

Exam item: Using the record for O=Cc1ccc(CO)o1 [5-HMF, 5-hydroxymethylfurfural] , report its Cmax.
Marked response: 413
